Measured attribute: melting point

# count of solved cases: 3
C=C(c1ccc(C(=O)OC)cc1)N1CC1C(N)=O (stereo unspecified)    149 to 150 °C
Cc1nc2c(N)nc3ccccc3c2n1C    288 to 290 °C
CCN(CC)c1c(Cl)cc(C(O)CNC(C)(C)C)cc1Cl (stereo unspecified)    93 to 96 °C

Prompt: Fill in the blank: the reported melting point of N#Cc1cccc(C(=O)Nc2ccccc2N)c1 is ____.
Completion: 197 to 200 °C

Prompt: Fill in the blank: the reported melting point of COC(=O)c1cc(F)ccc1Nc1ccnc2c(Cl)cccc12 is ____.
Completion: 196 °C

Prompt: Fill in the blank: the reported melting point of CC1=Cc2cc(-c3nnnn3C)ccc2OC1(C)C is ____.
Completion: 127 to 130 °C
